- Test Description: chemical recovery from spiked human plasma; higher = better extraction
- Experimental Setup: pooled human plasma; extraction method: SPE only (HLB 96-well)
Categorize each record by its chemical recovery using low class (below 40%), middle class (40% to below 50%), high class (50% or more)

Sort Clc1ccc(Cl)c(-c2cccc(Cl)c2Cl)c1 [PCB44] into one of the categories.
low class

Sort CC(C)NCC(O)c1ccc(NS(C)(=O)=O)cc1 (centres undefined) [Sotalol] into one of the categories.
low class

Sort N=C1NCCN1Cc1ccc(Cl)nc1 [Imidacloprid-guanidine] into one of the categories.
low class

Sort CC(C)(C)Nc1nc(N)nc(Cl)n1 [Desethylterbutylazine] into one of the categories.
middle class

Sort Oc1cc(O)c2c(c1)O[C@H](c1ccc(O)c(O)c1)[C@H](O)C2 [(-)-Epicatechin] into one of the categories.
low class

Sort CCc1cccc(C)c1N(C(=O)CS(=O)(=O)O)[C@@H](C)C(=O)O [Metolachlor-NOA 413-173] into one of the categories.
low class

Sort Oc1c(Br)cc(Cl)cc1Cc1cc(Cl)cc(Br)c1O [Bromochlorophen] into one of the categories.
low class

Sort CNC(=O)Oc1cccc2c1OC(C)(C)O2 [Bendiocarb] into one of the categories.
middle class

Sort CN(C/C=C/C#CC(C)(C)C)Cc1cccc2ccccc12 [Terbinafine] into one of the categories.
middle class

Sort CCC(C(N)=O)(C(N)=O)c1ccccc1 [Phenylethylmalonamide] into one of the categories.
low class

Sort CCOC(=O)[C@H](CCc1ccccc1)N[C@@H](C)C(=O)N1CCC[C@H]1C(=O)O [Enalapril] into one of the categories.
low class

Sort O=S(=O)(O)c1ccc2ccc(S(=O)(=O)O)cc2c1 [2,7-Naphthalenedisulfonic acid] into one of the categories.
high class

Sort CCCCCCCCCC[N+](C)(C)CCCCCCCCCC [Didecyldimethylammonium] into one of the categories.
high class

Sort COc1nc(NC(=O)NS(=O)(=O)c2ccccc2C(F)(F)F)nc(C(F)(F)F)n1 [Tritosulfuron] into one of the categories.
high class

Sort C[N+](C)(C)CC1CO1 (centres undefined) [2,3-Epoxypropyltrimethylammonium] into one of the categories.
low class

---

- Test Description: chemical recovery into PDMS from spiked human plasma; higher = better extraction
- Experimental Setup: pooled human plasma; extraction method: PES with PDMS; equilibration time (d): 1
Readout Name: chemical recovery into PDMS
Note: state the figure and append the unit.

// recorded chemical recovery into PDMS for O=P(c1ccccc1)(c1ccccc1)c1ccccc1 [Triphenylphosphine oxide] : 41%

// recorded chemical recovery into PDMS for CC(C)NCC(O)COc1cccc2ccccc12 (stereo not given) [Propranolol] : 0.322%

// recorded chemical recovery into PDMS for CCOCCN(C(=O)CCl)C(=C(C)C)c1ccccc1 [Pethoxamid] : 41%

// recorded chemical recovery into PDMS for CCOC(=O)C(C)(C)Oc1ccc(Cl)cc1 [Clofibrate] : 40.3%

// recorded chemical recovery into PDMS for CC(=O)C1(C)CC2=C(CCCC2(C)C)CC1C (stereo not given) [ISO E Super] : 33.8%

// recorded chemical recovery into PDMS for CC(=O)[C@@]1(O)CC[C@H]2[C@@H]3CCC4=CC(=O)CC[C@]4(C)[C@H]3CC[C@@]21C [17alpha-Hydroxyprogesterone] : 7.94%

// recorded chemical recovery into PDMS for CNC1=C(c2cccc(C(F)(F)F)c2)C(=O)C(c2ccccc2)O1 (stereo not given) [Flurtamone] : 1.85%

// recorded chemical recovery into PDMS for Nc1ccccc1-c1ccccc1 [2-Aminobiphenyl] : 14.2%

// recorded chemical recovery into PDMS for NC(=O)Nc1ccc(Cl)c(Cl)c1 [3,4-Dichlorophenylurea] : 0.856%

// recorded chemical recovery into PDMS for CN(C)CCOC(c1ccccc1)c1ccccc1 [Diphenhydramine] : 0.00464%
